// provenance: patent US11583532B2

- measurementTarget: human GOAT (ghrelin O-acyl transferase) (Homo sapiens (Human))
- Sequence (Q96T53 whole entry): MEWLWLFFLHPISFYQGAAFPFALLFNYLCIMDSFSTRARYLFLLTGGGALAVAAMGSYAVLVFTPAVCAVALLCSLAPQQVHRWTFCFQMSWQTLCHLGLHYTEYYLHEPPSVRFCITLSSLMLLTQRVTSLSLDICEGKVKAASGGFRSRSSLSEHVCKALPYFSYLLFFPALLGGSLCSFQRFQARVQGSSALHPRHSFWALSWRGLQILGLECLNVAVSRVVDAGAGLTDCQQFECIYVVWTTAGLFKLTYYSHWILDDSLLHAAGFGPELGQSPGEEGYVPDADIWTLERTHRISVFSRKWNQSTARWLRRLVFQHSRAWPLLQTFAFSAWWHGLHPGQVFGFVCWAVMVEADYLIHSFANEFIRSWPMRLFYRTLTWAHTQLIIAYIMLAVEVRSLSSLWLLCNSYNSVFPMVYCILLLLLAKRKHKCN
- experimentDescription: Determination of hGOAT activity in HEK293 cells after incubation with test compound (acyl-ghrelin ELISA)
- runConditions: HEK293 cells stably transfected with preproghrelin and human GOAT cDNA; octanoate-BSA 100 μM; 5 hours incubation; acyl-ghrelin in medium by ELISA; 8 compound concentrations
Collected IC50 values appear next to each entry.
Only the number, expressed in nM, is required.

Some solved entries appear below for comparison.
{"columns": ["smilesStr", "IC50, nM"],
 "data": [
  ["CCOc1nc(C(F)(F)F)ccc1Cc1c(C)nc2ncnn2c1N", 2.9],
  ["Cc1nc2ncnn2c(N)c1Cc1ccc(Br)c(-n2cc(F)cn2)n1", 0.68],
  ["COc1nc(C(F)(F)F)ccc1Cc1c(C)nc2ncnn2c1N", 1.9],
  ["Cc1nc2ncnn2c(N)c1Cc1ccc(C(F)(F)F)cc1", 3.4]
]}

Then this molecule:
Requested field: IC50. Item: `Cc1nc2ncnn2c(N)c1Cc1ccc(S(=O)(=O)C(F)(F)F)cc1` 4.2

* * *

- measurementTarget: human GOAT (ghrelin O-acyl transferase) (Homo sapiens (Human))
- experimentDescription: Determination of hGOAT activity in HEK293 cells after incubation with test compound (acyl-ghrelin ELISA)
- runConditions: HEK293 cells stably transfected with preproghrelin and human GOAT cDNA; octanoate-BSA 100 μM; 5 hours incubation; acyl-ghrelin in medium by ELISA; 8 compound concentrations
Kindly apply the following: class 1 if IC50 is less than 0.7 nM, class 0 in every other case.

# count of solved cases: 3
{"columns": ["compound", "qualitativeLabel"],
 "data": [
  ["Cc1nc2ncnn2c(N)c1Cc1ccc(C#N)c(OCC(C)(F)F)n1", "class 0"],
  ["Cc1nc2ncnn2c(N)c1Cc1ccc(Br)c(C(=O)OCC(F)(F)F)c1", "class 0"],
  ["Cc1nc2ncnn2c(N)c1Cc1ccc(C#N)c(NCC2CC2(F)F)n1 (stereo not shown)", "class 0"]
]}

Field: below-cutoff. Rule: recorded IC50 strictly less than 0.7 nM. Subject: `Cc1nc2ncnn2c(N)c1Cc1ccc(Br)c(N2CC(C(F)(F)F)C2)n1` class 0

Query `Cc1nc2ncnn2c(N)c1Cc1ccc(Br)c(OCC(C)(F)F)n1` next class 1

Query `Cc1nc2ncnn2c(N)c1Cc1ccc(C#N)c(NCCF)n1` next class 0

Query `Cc1nc2ncnn2c(N)c1Cc1ccc(C#N)c(NCCCF)n1` next class 0

* * *

- measurementTarget: human GOAT (ghrelin O-acyl transferase) (Homo sapiens (Human))
- experimentDescription: Determination of hGOAT activity in HEK293 cells after incubation with test compound (acyl-ghrelin ELISA)
- runConditions: HEK293 cells stably transfected with preproghrelin and human GOAT cDNA; octanoate-BSA 100 μM; 5 hours incubation; acyl-ghrelin in medium by ELISA; 8 compound concentrations
propertyName: pIC50
On this scale, pIC50 is minus log10 of a concentration expressed in M (mol/L).

Some solved entries appear below for comparison.
{"columns": ["compound", "number"],
 "data": [
  ["Cc1nc2ncnn2c(N)c1Cc1ccc(C#N)c(NCCC(F)F)n1 [Example 7.7]", 9.03],
  ["Cc1nc2ncnn2c(N)c1Cc1ccc(C#N)c(NC2CC(F)(F)C2)n1 [Example 7.3]", 8.64],
  ["Cc1nc2ncnn2c(N)c1Cc1cccc(-c2c[nH]nc2C(F)(F)F)n1 [Example 13.2]", 8.68]
]}

Requested field: pIC50. Item: Cc1nc2ncnn2c(N)c1Cc1ccc(C#N)c(OCC(F)(F)F)n1 [Example 9.5] 8.41

Query Cc1nc2ncnn2c(N)c1Cc1ccc(C#N)c(OCC(F)F)n1 [Example 9.1] next 8.62
